Cited source: patent US20240368214A1

Biological target: recombinant human GluN1/GluN2A receptor (Homo sapiens, UniProt Q05586+Q12879)
Construct: expressed in transfected cells; host or cells: HEK293, tetracycline-inducible expression
Sequence (Q12879 23-1464, other chains not shown): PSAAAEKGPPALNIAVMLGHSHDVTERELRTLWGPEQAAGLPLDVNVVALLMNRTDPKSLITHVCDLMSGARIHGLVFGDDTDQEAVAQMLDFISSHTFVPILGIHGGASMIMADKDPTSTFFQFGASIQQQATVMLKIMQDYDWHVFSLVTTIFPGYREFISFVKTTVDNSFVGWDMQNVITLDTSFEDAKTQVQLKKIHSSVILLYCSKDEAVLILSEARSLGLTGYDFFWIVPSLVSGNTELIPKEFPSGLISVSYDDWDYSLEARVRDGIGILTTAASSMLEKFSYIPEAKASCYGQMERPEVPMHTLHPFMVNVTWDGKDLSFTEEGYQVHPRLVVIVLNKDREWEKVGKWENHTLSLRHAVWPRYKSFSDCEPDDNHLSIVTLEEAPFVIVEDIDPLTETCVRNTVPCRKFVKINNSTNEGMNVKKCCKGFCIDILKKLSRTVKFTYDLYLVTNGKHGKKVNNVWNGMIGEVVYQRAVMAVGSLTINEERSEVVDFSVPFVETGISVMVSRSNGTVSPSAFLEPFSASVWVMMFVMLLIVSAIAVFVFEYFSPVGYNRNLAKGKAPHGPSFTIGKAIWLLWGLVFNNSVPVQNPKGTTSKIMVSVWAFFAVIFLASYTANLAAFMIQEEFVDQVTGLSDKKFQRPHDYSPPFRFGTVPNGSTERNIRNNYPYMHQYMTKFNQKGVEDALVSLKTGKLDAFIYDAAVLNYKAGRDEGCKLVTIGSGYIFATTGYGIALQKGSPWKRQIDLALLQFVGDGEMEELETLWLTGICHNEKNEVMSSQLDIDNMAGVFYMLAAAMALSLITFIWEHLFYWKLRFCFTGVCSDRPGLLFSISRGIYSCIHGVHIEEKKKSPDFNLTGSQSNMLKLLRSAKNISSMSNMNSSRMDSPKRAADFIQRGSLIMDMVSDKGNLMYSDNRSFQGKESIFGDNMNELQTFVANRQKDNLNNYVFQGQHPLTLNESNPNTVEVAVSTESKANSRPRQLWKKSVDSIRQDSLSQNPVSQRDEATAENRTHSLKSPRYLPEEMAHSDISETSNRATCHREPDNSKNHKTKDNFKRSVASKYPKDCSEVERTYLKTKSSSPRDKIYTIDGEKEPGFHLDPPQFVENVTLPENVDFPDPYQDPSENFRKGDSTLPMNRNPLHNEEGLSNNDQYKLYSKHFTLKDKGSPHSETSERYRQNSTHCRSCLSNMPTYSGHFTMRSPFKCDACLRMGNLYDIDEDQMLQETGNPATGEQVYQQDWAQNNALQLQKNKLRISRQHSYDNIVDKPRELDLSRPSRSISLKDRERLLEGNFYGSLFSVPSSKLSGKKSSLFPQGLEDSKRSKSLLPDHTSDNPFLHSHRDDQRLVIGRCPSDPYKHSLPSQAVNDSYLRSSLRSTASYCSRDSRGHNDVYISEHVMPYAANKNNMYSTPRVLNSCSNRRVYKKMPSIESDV
Assay: Whole-cell patch clamp of mammalian cells (Syncropatch 384i), NMDA modulation
Format: cell-based
Details: Table A-2; HEK293 cells, human GluN1/GluN2A; glutamate 1 μM / glycine 100 μM; -80 mV; peak amplitude increase
RECORDED_ENDPOINT: Emax

Take a look at these entries with their results.
Output Emax of CC[C@]1(O)CC[C@@]2(C)[C@@H](CC[C@@H]3[C@@H]2CC[C@]2(C)[C@@H]([C@@H](C#N)CCCC(C)(C)O)CC[C@@H]32)C1
< 100%

Output Emax of CC[C@]1(O)CC[C@@]2(C)C(=CC[C@H]3[C@@H]4CC[C@H]([C@@H](CC[C@](C)(O)C(F)(F)F)OC)[C@@]4(C)CC[C@@H]32)C1
> 200%

Further cases:
Output Emax of CC[C@]1(O)CC[C@@]2(C)C(=CC[C@H]3[C@@H]4CC[C@H]([C@@H](CC[C@H](O)C(C)C)OC)[C@@]4(C)CC[C@@H]32)C1
> 200%

Output Emax of CC[C@]1(O)CC[C@@]2(C)[C@@H](CC[C@@H]3[C@@H]2CC[C@]2(C)[C@@H]([C@@H](CC[C@@H](O)C(C)C)OC)CC[C@@H]32)C1
> 200%

Output Emax of CC[C@]1(O)CC[C@@]2(C)[C@@H](CC[C@@H]3[C@@H]2CC[C@]2(C)[C@@H]([C@H](C#N)CCCC(C)(C)O)CC[C@@H]32)C1
> 200%

----------
Target: recombinant human GluN1/GluN2A receptor (Homo sapiens, UniProt Q05586+Q12879)
Construct: expressed in transfected cells; host or cells: HEK293, tetracycline-inducible expression
Test: Whole-cell patch clamp of mammalian cells (Syncropatch 384i), NMDA modulation
Type: cell-based
Settings: Table A-2; HEK293 cells, human GluN1/GluN2A; glutamate 1 μM / glycine 100 μM; -80 mV; peak amplitude increase
RECORDED_ENDPOINT: Emax

Output Emax of CC[C@H](CC[C@@](C)(O)C(F)(F)F)[C@H]1CC[C@H]2[C@@H]3CC[C@H]4C[C@](O)(CC)CC[C@]4(C)[C@H]3CC[C@]12C [Compound A-2]
100 to 200%

Output Emax of CC[C@]1(O)CC[C@@]2(C)[C@@H](CC[C@@H]3[C@@H]2CC[C@]2(C)[C@@H]([C@H](F)CC[C@@H](O)C(C)C)CC[C@@H]32)C1 [Compound A-5]
> 200%

Output Emax of CC[C@]1(O)CC[C@@]2(C)C(=CC[C@H]3[C@@H]4CC[C@H]([C@@H](CC[C@@H](O)C(C)C)OC)[C@@]4(C)CC[C@@H]32)C1 [Compound A-15]
> 200%

----------
Molecular target: recombinant human GluN1/GluN2A receptor (Homo sapiens, UniProt Q05586+Q12879)
Construct: expressed in transfected cells; host or cells: HEK293, tetracycline-inducible expression
Test: Whole-cell patch clamp of mammalian cells (Syncropatch 384i), NMDA modulation
Format: cell-based
Details: Table G-2; HEK293 cells, human GluN1/GluN2A; glutamate 1 μM / glycine 100 μM; -80 mV; peak amplitude increase
Listing: Emax of selected molecules

Take a look at these entries with their results.
Output Emax of CC[C@]1(O)CC[C@@]2(CC)[C@@H](CC[C@H]3[C@@H]4CC[C@H]([C@H](C)CC[C@@](C)(O)C(F)(F)F)[C@@]4(C)CC[C@@H]32)C1
100 to 200%

Output Emax of CC[C@]1(O)CC[C@@]2(CC)[C@@H](CC[C@H]3[C@@H]4CC[C@H]([C@H](C)CCCC(C)(C)O)[C@@]4(C)CC[C@@H]32)C1
100 to 200%

Output Emax of CC[C@]1(O)CC[C@@]2(CC)[C@@H](CC[C@H]3[C@@H]4CC[C@H]([C@H](C)CC[C@](C)(O)C(F)(F)F)[C@@]4(C)CC[C@@H]32)C1
> 200%

Further cases:
Output Emax of CC[C@]1(O)CC[C@H]2[C@@H](CC[C@@H]3[C@@H]2CC[C@]2(C)[C@@H]([C@H](C)CC[C@](C)(O)C(F)(F)F)CC[C@@H]32)C1
> 200%

Output Emax of CC[C@]1(O)CC[C@H]2[C@@H](CC[C@@H]3[C@@H]2CC[C@]2(C)[C@@H]([C@H](C)CC[C@@](C)(O)C(F)(F)F)CC[C@@H]32)C1
100 to 200%

----------
Listing: pEC50 of selected compounds
Target: recombinant human GluN1/GluN2A receptor (Homo sapiens, UniProt Q05586+Q12879)
Construct: expressed in transfected cells; host or cells: HEK293, tetracycline-inducible expression
Experiment: Whole-cell patch clamp of mammalian cells (Syncropatch 384i), NMDA modulation
Assay type: cell-based
Settings: Table E-2; HEK293 cells, human GluN1/GluN2A; glutamate 1 μM / glycine 100 μM; -80 mV; peak amplitude increase; read-out: EC50
pEC50: −log10 of the molar value.

Output pEC50 of C[C@H](CCC1(O)CC1)[C@H]1CC[C@H]2[C@@H]3CC[C@H]4C[C@@](C)(O)CC[C@]4(C)C3=CC[C@]12C
7.00 to 9.00

Further cases:
Output pEC50 of CC[C@]1(O)CC[C@]2(C)C3=CC[C@]4(C)[C@@H]([C@H](C)CC[C@H](O)C(C)(C)C#N)CC[C@H]4[C@@H]3CC[C@H]2C1
7.00 to 9.00

Output pEC50 of CC[C@]1(O)CC[C@]2(C)C3=CC[C@]4(C)[C@@H]([C@H](C)CC[C@@](C)(O)C(F)(F)F)CC[C@H]4[C@@H]3CC[C@H]2C1
6.30 to 7.00

Output pEC50 of CC(C)[C@H](O)CC[C@@H](C)[C@H]1CC[C@H]2[C@@H]3CC[C@H]4C[C@@](C)(O)CC[C@]4(C)C3=CC[C@]12C
7.00 to 9.00

Output pEC50 of CC[C@]1(O)CC[C@]2(C)C3=CC[C@]4(C)[C@@H]([C@H](C)CC[C@@H](O)C(C)C)CC[C@H]4[C@@H]3CC[C@H]2C1
7.00 to 9.00

Output pEC50 of CC[C@]1(O)CC[C@]2(C)C3=CC[C@]4(C)[C@@H]([C@H](C)CC[C@]5(O)CCOC5)CC[C@H]4[C@@H]3CC[C@H]2C1
7.00 to 9.00

----------
Target: recombinant human GluN1/GluN2A receptor (Homo sapiens, UniProt Q05586+Q12879)
Construct: expressed in transfected cells; host or cells: HEK293, tetracycline-inducible expression
Test: Whole-cell patch clamp of mammalian cells (Syncropatch 384i), NMDA modulation
Format: cell-based
Settings: Table C-2; HEK293 cells, human GluN1/GluN2A; glutamate 1 μM / glycine 100 μM; -80 mV; peak amplitude increase; read-out: EC50
pEC50: −log10 of the molar value.
RECORDED_ENDPOINT: pEC50

Take a look at these entries with their results.
Output pEC50 of CC[C@H](C#N)[C@@H](O)CC[C@@H](C)[C@H]1CC[C@H]2[C@@H]3CC[C@H]4C[C@](O)(CC)CC[C@]4(C)[C@H]3CC[C@]12C
6.30 to 7.00

Output pEC50 of CC[C@]1(O)CC[C@@]2(C)C(=CC[C@H]3[C@@H]4CC[C@H]([C@H](C)CC[C@H](O)C5(C#N)CCC5)[C@@]4(C)CC[C@@H]32)C1
6.30 to 7.00

Output pEC50 of C[C@H](CC[C@@H](O)C1(C#N)CCC1)[C@H]1CC[C@H]2[C@@H]3CC[C@H]4C[C@@](C)(O)CC[C@]4(C)C3=CC[C@]12C
7.00 to 9.00

Output pEC50 of CC[C@]1(O)CC[C@@]2(C)C(=CC[C@H]3[C@@H]4CC[C@H]([C@H](C)CC[C@@H](O)C5(C#N)CCC5)[C@@]4(C)CC[C@@H]32)C1
7.00 to 9.00

Further cases:
Output pEC50 of COC[C@]1(O)CC[C@@]2(C)[C@@H](CC[C@@H]3[C@@H]2CC[C@]2(C)[C@@H]([C@H](C)CC[C@@H](O)C(C)(C)C#N)CC[C@@H]32)C1
7.00 to 9.00

Output pEC50 of CC[C@]1(O)CC[C@@]2(C)[C@@H](CC[C@@H]3[C@@H]2CC[C@]2(C)[C@@H]([C@H](C)CC[C@H](O)C(C)(C)C#N)CC[C@@H]32)C1
7.00 to 9.00

----------
Target: recombinant human GluN1/GluN2A receptor (Homo sapiens, UniProt Q05586+Q12879)
Construct: expressed in transfected cells; host or cells: HEK293, tetracycline-inducible expression
Test: Whole-cell patch clamp of mammalian cells (Syncropatch 384i), NMDA modulation
Type: cell-based
Settings: Table H-2; HEK293 cells, human GluN1/GluN2A; glutamate 1 μM / glycine 100 μM; -80 mV; peak amplitude increase; read-out: EC50
Listing: EC50 of selected molecules

Output EC50 of C[C@H](CC[C@](C)(O)C(F)(F)F)[C@H]1CCC[C@H]2[C@@H]3CC=C4C[C@@](C)(O)CC[C@]4(C)[C@H]3CC[C@]12C [Compound H-1]
500 to 1000 nM

Output EC50 of CC[C@]1(O)CC[C@@]2(C)C(=CC[C@H]3[C@@H]4CCC[C@H]([C@H](C)CC[C@@H](O)C(C)C)[C@@]4(C)CC[C@@H]32)C1 [Compound H-6]
1 to 100 nM

Output EC50 of CC[C@]1(O)CC[C@@]2(C)C(=CC[C@H]3[C@@H]4CCC[C@H]([C@H](C)CC[C@@](C)(O)C(F)(F)F)[C@@]4(C)CC[C@@H]32)C1 [Compound H-10]
500 to 1000 nM

Output EC50 of CC(C)[C@@H](O)CC[C@@H](C)[C@H]1CCC[C@H]2[C@@H]3CC=C4C[C@@](C)(O)CC[C@]4(C)[C@H]3CC[C@]12C [Compound H-7]
100 to 500 nM

Turning to the following molecule.
Output EC50 of CC[C@]1(O)CC[C@@]2(C)C(=CC[C@H]3[C@@H]4CCC[C@H]([C@H](C)CC[C@H](O)C(C)C)[C@@]4(C)CC[C@@H]32)C1 [Compound H-5]
100 to 500 nM
